Tested on: HCT-116
experiment-notes: NCI tumour cell line growth inhibition, 48 h
Calls of active or inactive are those of the source. Cut-off read from the data, not from the text of the source: active = GI50 up to about 1.1 µM and inactive = higher.
Please reply with one of these outcomes: t for active, f for inactive

Sample answers from the record:
{"columns": ["molecule", "class-label"],
 "data": [
  ["Cc1cccc(C)c1NC(=O)CCCC(=O)C(C#N)c1ccc(Cl)cc1 (configuration not stated)", "f"],
  ["CCCCCCCCCC(=O)N[C@H]1CCc2cc(OC)c(OC)c(OC)c2-c2ccc(SC)c(=O)cc21", "t"],
  ["Nc1c(C(=O)O)nnc2cc(Cl)ccc12", "f"],
  ["CC(C)(C)OC(=O)NCC(=O)NC1c2ccsc2/C(=N/O)[C@H]1O (some centres not stated)", "f"],
  ["Cc1ccnc2nc(-c3cccc(Cl)c3)cc(O)c12", "t"],
  ["O=P(O)(O)CN1CCNCCN(CP(=O)(O)O)CC1", "f"]
]}

Problem: Dear all, I need the recorded test outcome for COc1cc(CSc2ccc(O)cc2)cc(OC)c1OC , thank you.
Solution: f

Problem: One more molecule: O=C1c2ccccc2OCC12OC21C=CC(Cl)=CC1 (configuration not stated)
Solution: f

Problem: Record: O=C(NC(Nc1ccc(F)c(Cl)c1)(C(F)(F)F)C(F)(F)F)C(C(F)(F)F)C(F)(F)F
Solution: f

Problem: Another molecule: CCOC(=O)/C(=C/c1ccccc1Br)P(=O)(OCC)OCC
Solution: f

Problem: Ok, now CCOc1ccccc1Nc1nc(C)c(C(=O)CC(=O)C(=O)Nc2ccccc2)s1
Solution: f

Problem: Record: OCCNCO
Solution: f

Problem: Repeat for the following molecule: COc1ccc(P2(=S)Oc3ccccc3-c3ccccc3O2)cc1
Solution: t

* * *

System: SF-539
experiment-notes: NCI tumour cell line growth inhibition, 48 h
Calls of active or inactive are those of the source. No stated cut-off is given here; in the data, active = GI50 up to about 1.1 µM and inactive = higher.
Can you answer with just one of these options? y for active, n for inactive

Use the examples below as a reference point.
{"columns": ["compound", "measured-target", "class-label"],
 "data": [
  ["CCN(CC)CC(C)(C)C(=O)/C=C/c1ccc(/C=C/C(=O)C(C)(C)CN(CC)CC)cc1", "SF-539", "n"],
  ["CC(=O)N1CCC2(C=Nc3ccccc32)CC1", "SF-539", "n"],
  ["CCOc1ccccc1Nc1nc(C)c(C(=O)CC(=O)C(=O)Nc2ccccc2)s1", "SF-539", "n"],
  ["OC(CCN1CCN(CCOC(c2ccc(F)cc2)c2ccc(F)cc2)CC1)c1ccccc1 (configuration not stated)", "SF-539", "n"],
  ["O=C(OCc1ccccc1CN1CCOCC1)c1cccc(Br)c1", "SF-539", "n"],
  ["CC1=C(C2=C(C)C(=O)C(=O)c3cc(C)ccc32)c2ccc(C)cc2C(=O)C1=O", "SF-539", "y"],
  ["CO/N=C(/C(=O)Nc1c[n+](CC(=O)[O-])cs1)c1csc(N)n1", "SF-539", "n"],
  ["Nc1ccc2c(SCCSc3c4ccccc4nc4cc(N)ccc34)c3ccccc3nc2c1", "SF-539", "n"]
]}

Problem: Per the assay record, what outcome was assigned to O=S1(=O)NC2CCC3NS(=O)(=O)NC4CCC(N1)N4S(=O)(=O)N23 (configuration not stated) ?
Solution: n

Problem: Here is the next compound: NC(Cc1ccccc1)C(=O)O (configuration not stated)
Solution: n

Problem: Then what about the compound O=c1oc2ccc3ccccc3c2cc1-c1cn2ccccc2n1 ?
Solution: n

Problem: Continue with OC1CN(OC/C=C/c2ccccc2)CC(O)C1O (configuration not stated)
Solution: n

Problem: Input c1ccc2c(c1)N=C(c1cccc3ccccc13)CC(c1ccc3c(c1)OCO3)S2 (configuration not stated)
Solution: n

Problem: Request: CC(C)(C)c1cc2c(c(C(C)(C)C)c1O)CC(=O)O2
Solution: n

Problem: Also, c1ccc(CN2CCc3[nH]c4ccccc4c3C2)cc1 please.
Solution: n

Problem: Now the compound CC(=O)Nc1ccc2c3c(cc(O)c2c1)N(C(=O)CCCCCCC(=O)N1CC(CCl)c2c1cc(O)c1cc(NC(C)=O)ccc21)CC3CCl (configuration not stated)
Solution: y

Problem: Let us now turn to O=C(O)CN1C(=O)C(Cc2ccc(O)cc2)N=C(c2cccc(O)c2)c2ccccc21 (configuration not stated)
Solution: n
